- System: Oryza sativa, (L.) Tebonnet
- ASSAY_OVERVIEW: Rice tolerance to post-transplant applications under flooded paddy conditions (Example 187), ORYSAT (Rice, Tebonnet)
- ASSAY_CONTEXT: 0.0320 kg/ha, rated three to four weeks after treatment
MEASURED_ATTRIBUTE: ORYSAT herbicidal rating (rice tolerance)
Could you keep your reply to the number by itself?

Guide cases for ORYSAT herbicidal rating (rice tolerance), answers given:
{"STRUCTURE": "Cn1c(C(F)(F)F)cc(=O)n(-c2ccc3snc(C(=O)NS(N)(=O)=O)c3c2)c1=O", "STUDY_SYSTEM": "Oryza sativa, (L.) Tebonnet", "NUMERIC_VALUE": 0.0}
{"STRUCTURE": "Cn1c(C(F)(F)F)cc(=O)n(-c2ccc3snc(C(C)(C)C(=O)O)c3c2)c1=O", "STUDY_SYSTEM": "Oryza sativa, (L.) Tebonnet", "NUMERIC_VALUE": 4.0}
{"STRUCTURE": "Cn1c(C(F)(F)F)cc(=O)n(-c2ccc3snc(C(C)(C)C(=O)NS(C)(=O)=O)c3c2)c1=O", "STUDY_SYSTEM": "Oryza sativa, (L.) Tebonnet", "NUMERIC_VALUE": 3.0}

Now turn to the next compound.
Requested read-out ORYSAT herbicidal rating (rice tolerance), target or system Oryza sativa, (L.) Tebonnet, entry Cn1c(C(F)(F)F)cc(=O)n(-c2ccc3snc(C(=O)NO)c3c2)c1=O
2.0
